test system: ChaGo-K-1; assay: relative viability (nuclei count vs DMSO), 5 days (fraction); higher = more cells survive; details: first compound 0.03162 µM
Define the label as Satisfied when relative viability is strictly less than 0.5 and as Not satisfied in all remaining cases.

Illustrative cases are given below, each with its answer.
Cc1cn(-c2cc(NC(=O)c3ccc(C)c(Nc4nccc(-c5cccnc5)n4)c3)cc(C(F)(F)F)c2)cn1 [Nilotinib] + CCNC(=O)c1noc(-c2cc(C(C)C)c(O)cc2O)c1-c1ccc(CN2CCOCC2)cc1 [Luminespib] (partner 0.01 µM): Not satisfied
Cc1cn(-c2cc(NC(=O)c3ccc(C)c(Nc4nccc(-c5cccnc5)n4)c3)cc(C(F)(F)F)c2)cn1 [Nilotinib] + Cc1nc(Nc2ncc(C(=O)Nc3c(C)cccc3Cl)s2)cc(N2CCN(CCO)CC2)n1 [Dasatinib] (partner 0.075 µM): Satisfied

Check if relative viability falls below 0.5 for Cc1cn(-c2cc(NC(=O)c3ccc(C)c(Nc4nccc(-c5cccnc5)n4)c3)cc(C(F)(F)F)c2)cn1 [Nilotinib] + CS(=O)(=O)N1CCN(Cc2cc3nc(-c4cccc5[nH]ncc45)nc(N4CCOCC4)c3s2)CC1 [Pictilisib] (partner 1 µM) . Satisfied

Check if relative viability falls below 0.5 for Cc1cn(-c2cc(NC(=O)c3ccc(C)c(Nc4nccc(-c5cccnc5)n4)c3)cc(C(F)(F)F)c2)cn1 [Nilotinib] + N=C(N)NC(=N)NCCc1ccccc1 [Phenformin] (partner 250 µM) . Satisfied

Check if relative viability falls below 0.5 for Cc1cn(-c2cc(NC(=O)c3ccc(C)c(Nc4nccc(-c5cccnc5)n4)c3)cc(C(F)(F)F)c2)cn1 [Nilotinib] + CC(C)C[C@H](NC(=O)[C@H](Cc1ccccc1)NC(=O)c1cnccn1)B(O)O [Bortezomib] (partner 0.002 µM) . Not satisfied

Check if relative viability falls below 0.5 for Cc1cn(-c2cc(NC(=O)c3ccc(C)c(Nc4nccc(-c5cccnc5)n4)c3)cc(C(F)(F)F)c2)cn1 [Nilotinib] + CC1(C)CCC(c2ccc(Cl)cc2)=C(CN2CCN(c3ccc(C(=O)NS(=O)(=O)c4ccc(N[C@H](CCN5CCOCC5)CSc5ccccc5)c(S(=O)(=O)C(F)(F)F)c4)cc3)CC2)C1 [Navitoclax] (partner 0.5 µM) . Not satisfied
